Test system: NA, DA and 5-HT
run.description: In vivo brain microdialysis: extracellular monoamines in striatum and frontal cortex
Design: species or system Sprague-Dawley rats
experimental.context: Rattus norvegicus, sc; 50 μmol/kg s.c., striatum, n=1-3; read-out: 5-HT Stri, maximum effect compared to baseline ± SEM
Each entry below lists one item and its recorded response vs control in vivo at 50 µmol/kg value.
Response body: numeric value in %, unit text excluded.

The examples below pair each entry with its known result.
1. CN1CC(Oc2c(F)c(F)cc(F)c2F)C1 : 205
2. Fc1cc(F)c(OC2CNC2)c(F)c1 : 573

Form entry - test system: NA, DA and 5-HT; read-out: response vs control in vivo at 50 µmol/kg; molecule: "CCN1CC(Oc2c(F)c(F)cc(F)c2F)C1"
281

Form entry - test system: NA, DA and 5-HT; read-out: response vs control in vivo at 50 µmol/kg; molecule: "Fc1cc(F)c(F)c(OC2CNC2)c1F"
197

Form entry - test system: NA, DA and 5-HT; read-out: response vs control in vivo at 50 µmol/kg; molecule: "Fc1cc(F)c(OC2CNC2)cc1F"
663

Form entry - test system: NA, DA and 5-HT; read-out: response vs control in vivo at 50 µmol/kg; molecule: "Fc1cccc(OC2CNC2)c1F"
217

Form entry - test system: NA, DA and 5-HT; read-out: response vs control in vivo at 50 µmol/kg; molecule: "Fc1cc(F)c(F)c(OC2CNC2)c1"
202

Form entry - test system: NA, DA and 5-HT; read-out: response vs control in vivo at 50 µmol/kg; molecule: "Fc1cc(OC2CNC2)cc(F)c1F"
574

Form entry - test system: NA, DA and 5-HT; read-out: response vs control in vivo at 50 µmol/kg; molecule: "Fc1ccc(F)c(OC2CNC2)c1F"
141

###

test.target: Human Dopamine Transporter (DAT (h)) (Homo sapiens (Human), UniProt Q01959)
Sequence (Q01959 whole entry): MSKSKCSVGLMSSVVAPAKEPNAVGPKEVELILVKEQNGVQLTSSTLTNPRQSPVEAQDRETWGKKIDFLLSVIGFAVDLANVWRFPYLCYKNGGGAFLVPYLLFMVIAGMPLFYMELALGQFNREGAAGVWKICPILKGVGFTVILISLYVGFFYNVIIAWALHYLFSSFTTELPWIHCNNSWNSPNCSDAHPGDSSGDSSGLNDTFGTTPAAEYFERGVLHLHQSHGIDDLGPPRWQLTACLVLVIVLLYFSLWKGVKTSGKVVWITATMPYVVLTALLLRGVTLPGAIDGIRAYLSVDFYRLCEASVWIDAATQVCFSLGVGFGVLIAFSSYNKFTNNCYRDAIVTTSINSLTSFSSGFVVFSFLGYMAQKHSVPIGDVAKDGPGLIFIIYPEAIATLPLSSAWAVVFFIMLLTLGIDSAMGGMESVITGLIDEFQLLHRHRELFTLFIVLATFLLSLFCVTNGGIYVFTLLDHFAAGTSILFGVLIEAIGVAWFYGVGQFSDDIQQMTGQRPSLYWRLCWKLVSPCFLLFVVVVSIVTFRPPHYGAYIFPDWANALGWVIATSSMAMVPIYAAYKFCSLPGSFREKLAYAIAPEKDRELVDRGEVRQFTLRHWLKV
run.description: Radioligand binding assay, human dopamine transporter ([3H]BTCP)
experimental.context: 2 h; single concentration 1.0 E-5 M, duplicate, mean values
Class Met: inhibition at 10 µM at least 20%. Class Not met: inhibition at 10 µM below 20%.

See these solved cases before continuing.
1) CCN1CC(Oc2c(F)c(F)cc(F)c2F)C1 : Not met
2) Fc1cccc(OC2CNC2)c1F : Met
3) Fc1cc(F)c(F)c(OC2CNC2)c1 : Not met
4) Fc1c(F)c(F)c(OC2CNC2)c(F)c1F : Not met
5) Fc1cc(F)c(OC2CNC2)c(F)c1 : Not met
6) Clc1ccc(OC2CNC2)cc1Cl [Reference Compound, reference compound] : Met
7) CN1CC(Oc2c(F)c(F)cc(F)c2F)C1 : Not met
8) Fc1cc(F)c(OC2CNC2)cc1F : Not met

Say whether "Fc1cc(OC2CNC2)cc(F)c1F" shows inhibition at 10 µM of 20% or more.
Not met

Say whether Fc1cc(F)cc(OC2CNC2)c1 [Example 52C] shows inhibition at 10 µM of 20% or more.
Met

Say whether "Fc1cc(F)c(F)c(OC2CNC2)c1F" shows inhibition at 10 µM of 20% or more.
Not met

Say whether "Fc1ccc(F)c(OC2CNC2)c1F" shows inhibition at 10 µM of 20% or more.
Met

Say whether "Fc1ccc(OC2CNC2)c(F)c1F" shows inhibition at 10 µM of 20% or more.
Not met

###

Each entry below lists one item and its recorded locomotor activity value.
Test system: non-pre-treated Sprague-Dawley rats
run.description: Locomotor activity in drug-naïve rats (behavioural activity, distance traveled 0-60 min)
Assay type: in vivo
experimental.context: 33 μmol/kg s.c., recorded for 60 minutes, control saline, n=5
Marks after values point to notes of the source that are not given here.

The examples below pair each entry with its known result.
1. Fc1cc(F)cc(OC2CNC2)c1 [Example 52C] : 74 ± 24 % of control means
2. CCN1CC(Oc2c(F)c(F)cc(F)c2F)C1 [Example 39] : 103 ± 18 % of control means
3. Fc1cc(F)c(F)c(OC2CNC2)c1F [Example 3] : 71 ± 26 % of control means
4. Fc1cc(F)cc(OC2CNC2)c1.O=C(O)C(O)C(O)C(=O)O [Example 52B] : 30 ± 5* % of control means
5. Clc1ccc(OC2CNC2)cc1Cl [Reference Compound, reference compound] : 108 ± 23 % of control means

What value of locomotor activity has been reported for the following compound? Fc1cc(F)c(F)c(OC2CNC2)c1 [Example 2]
57 ± 5*** % of control means

What value of locomotor activity has been reported for the following compound? Fc1cccc(OC2CNC2)c1F [Example 1A]
163 ± 17* % of control means

###

test.target: Human 5-HT Transporter (SERT (h)) (Homo sapiens (Human), UniProt P31645)
Sequence (P31645 whole entry): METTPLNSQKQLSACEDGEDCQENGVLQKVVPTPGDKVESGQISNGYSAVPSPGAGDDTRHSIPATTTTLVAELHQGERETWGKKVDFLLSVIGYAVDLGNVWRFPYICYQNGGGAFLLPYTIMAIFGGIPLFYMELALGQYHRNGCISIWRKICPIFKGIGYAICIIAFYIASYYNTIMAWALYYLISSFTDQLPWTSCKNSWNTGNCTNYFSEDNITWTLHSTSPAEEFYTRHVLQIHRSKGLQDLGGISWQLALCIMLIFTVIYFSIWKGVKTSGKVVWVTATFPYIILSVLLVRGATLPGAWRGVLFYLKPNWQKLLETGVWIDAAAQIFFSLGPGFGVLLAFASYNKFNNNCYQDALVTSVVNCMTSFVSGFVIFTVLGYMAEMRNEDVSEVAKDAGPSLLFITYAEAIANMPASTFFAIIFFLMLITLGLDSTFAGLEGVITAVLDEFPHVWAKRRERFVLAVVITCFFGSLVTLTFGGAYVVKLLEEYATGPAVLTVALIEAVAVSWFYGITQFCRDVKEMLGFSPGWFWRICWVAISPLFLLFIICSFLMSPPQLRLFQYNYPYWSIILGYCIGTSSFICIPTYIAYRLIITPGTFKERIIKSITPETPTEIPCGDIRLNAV
run.description: Radioligand binding assay, human 5-HT transporter ([3H]imipramine)
experimental.context: 1 h; single concentration 1.0 E-5 M, duplicate, mean values
parameter: inhibition at 10 µM
Quote the value and follow it with the unit of measurement.

The examples below pair each entry with its known result.
1) Fc1cc(F)c(OC2CNC2)cc1F : 25%
2) Fc1ccc(OC2CNC2)c(F)c1F : 29%
3) Fc1cc(OC2CNC2)cc(F)c1F : 28%
4) Fc1ccc(F)c(OC2CNC2)c1F : 6%
5) Fc1cc(F)cc(OC2CNC2)c1 [Example 52C] : 29%

What value of inhibition at 10 µM has been reported for the following compound? "Fc1cc(F)c(F)c(OC2CNC2)c1"
12%

###

System: NA, DA and 5-HT
run.description: In vivo brain microdialysis: extracellular monoamines in striatum and frontal cortex
Set-up: species or system Sprague-Dawley rats
experimental.context: Rattus norvegicus, sc; 50 μmol/kg s.c., frontal cortex, n=1-3; read-out: NA FC, maximum effect compared to baseline ± SEM
parameter: response vs control in vivo at 50 µmol/kg (%)
Response body: numeric value in %, unit text excluded.

1. Fc1ccc(OC2CNC2)c(F)c1F : 799

What value of response vs control in vivo at 50 µmol/kg has been reported for the following compound? "Fc1cc(F)c(OC2CNC2)c(F)c1"
862

What value of response vs control in vivo at 50 µmol/kg has been reported for the following compound? "CN1CC(Oc2c(F)c(F)cc(F)c2F)C1"
422

What value of response vs control in vivo at 50 µmol/kg has been reported for the following compound? "Fc1cc(F)c(OC2CNC2)cc1F"
910

What value of response vs control in vivo at 50 µmol/kg has been reported for the following compound? "CCN1CC(Oc2c(F)c(F)cc(F)c2F)C1"
414

###

test.target: Human Norepinephrine Transporter (NET (h)) (Homo sapiens (Human))
Sequence (P23975 whole entry): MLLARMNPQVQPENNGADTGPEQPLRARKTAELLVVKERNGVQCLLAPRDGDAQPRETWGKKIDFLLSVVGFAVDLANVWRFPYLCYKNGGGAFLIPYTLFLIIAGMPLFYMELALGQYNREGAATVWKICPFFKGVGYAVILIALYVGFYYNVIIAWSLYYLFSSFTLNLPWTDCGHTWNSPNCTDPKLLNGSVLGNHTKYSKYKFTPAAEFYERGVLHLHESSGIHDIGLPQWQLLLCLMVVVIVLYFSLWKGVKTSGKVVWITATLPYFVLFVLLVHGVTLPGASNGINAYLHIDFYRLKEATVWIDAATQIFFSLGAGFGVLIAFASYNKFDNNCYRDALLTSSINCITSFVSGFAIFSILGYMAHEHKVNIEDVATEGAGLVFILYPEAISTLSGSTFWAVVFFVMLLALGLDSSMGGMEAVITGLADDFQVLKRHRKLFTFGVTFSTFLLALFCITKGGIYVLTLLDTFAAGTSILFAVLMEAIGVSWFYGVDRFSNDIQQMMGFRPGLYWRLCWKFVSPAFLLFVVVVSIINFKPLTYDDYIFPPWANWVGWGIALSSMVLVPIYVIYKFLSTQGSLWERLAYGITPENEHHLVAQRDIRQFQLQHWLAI
run.description: Radioligand binding assay, human norepinephrine transporter ([3H]nisoxetine)
experimental.context: 2 h; single concentration 1.0 E-5 M, duplicate, mean values
parameter: inhibition at 10 µM (%)
Response body: numeric value in %, unit text excluded.

1) Fc1cc(F)c(F)c(OC2CNC2)c1 : 25

What value of inhibition at 10 µM has been reported for the following compound? "CCN1CC(Oc2c(F)c(F)cc(F)c2F)C1"
11

###

Tested on: NA, DA and 5-HT
run.description: In vivo brain microdialysis: extracellular monoamines in striatum and frontal cortex
Parameters: species or system Sprague-Dawley rats
experimental.context: Rattus norvegicus, sc; 50 μmol/kg s.c., frontal cortex, n=1-3; read-out: 5-HT FC, maximum effect compared to baseline ± SEM
Source text: The microdialysis technique is a well-established technique for measuring extracellular levels of neurotransmitters (Ungerstedt, J Int Med, 1991, 230; 365-73). The microdialysis technique was used to measure the effect of compounds disclosed herein upon the efflux of monoamine transmitters (NA, DA and 5-HT) in striatum and frontal cortex in conscious, freely moving rats. Male Sprague-Dawley rats weighing 280-320 g were used throughout the experiments. […]
Checkbox rule: response vs control in vivo at 50 µmol/kg lower than 200% = class 1; response vs control in vivo at 50 µmol/kg not lower than 200% = class 0.

1. Fc1cc(F)c(OC2CNC2)cc1F : class 0
2. Clc1ccc(OC2CNC2)cc1Cl [Reference Compound, reference compound] : class 0
3. CCN1CC(Oc2c(F)c(F)cc(F)c2F)C1 : class 0
4. Fc1cccc(OC2CNC2)c1F : class 0
5. CN1CC(Oc2c(F)c(F)cc(F)c2F)C1 : class 1

Next molecule, please.
Determine whether this molecule shows response vs control in vivo at 50 µmol/kg lower than 200% (ties excluded): "Fc1ccc(F)c(OC2CNC2)c1F"
class 1

###

Each entry below lists one item and its recorded inhibition at 10 µM value.
test.target: Human Norepinephrine Transporter (NET (h)) (Homo sapiens (Human))
run.description: Radioligand binding assay, human norepinephrine transporter ([3H]nisoxetine)
experimental.context: 2 h; single concentration 1.0 E-5 M, duplicate, mean values
Response body: numeric value in %, unit text excluded.

The examples below pair each entry with its known result.
1) Fc1ccc(F)c(OC2CNC2)c1F : 10
2) CN1CC(Oc2c(F)c(F)cc(F)c2F)C1 : 6
3) Fc1cc(F)cc(OC2CNC2)c1 [Example 52C] : 25
4) Clc1ccc(OC2CNC2)cc1Cl [Reference Compound, reference compound] : 84

What value of inhibition at 10 µM has been reported for the following molecule? "Fc1cc(OC2CNC2)cc(F)c1F"
3

What value of inhibition at 10 µM has been reported for the following molecule? "Fc1c(F)c(F)c(OC2CNC2)c(F)c1F"
-1

What value of inhibition at 10 µM has been reported for the following molecule? "Fc1ccc(OC2CNC2)c(F)c1F"
-2

What value of inhibition at 10 µM has been reported for the following molecule? "Fc1cccc(OC2CNC2)c1F"
37

What value of inhibition at 10 µM has been reported for the following molecule? "Fc1cc(F)c(OC2CNC2)c(F)c1"
6

What value of inhibition at 10 µM has been reported for the following molecule? "Fc1cc(F)c(OC2CNC2)cc1F"
5

What value of inhibition at 10 µM has been reported for the following molecule? "Fc1cc(F)c(F)c(OC2CNC2)c1F"
25
